target: L. majIPCS (Leishmania major); construct: made in house; assay: inhibition of microsomal enzyme preparation of L. majIPCS; format: biochemical
Sequence (E9AFX2 whole entry): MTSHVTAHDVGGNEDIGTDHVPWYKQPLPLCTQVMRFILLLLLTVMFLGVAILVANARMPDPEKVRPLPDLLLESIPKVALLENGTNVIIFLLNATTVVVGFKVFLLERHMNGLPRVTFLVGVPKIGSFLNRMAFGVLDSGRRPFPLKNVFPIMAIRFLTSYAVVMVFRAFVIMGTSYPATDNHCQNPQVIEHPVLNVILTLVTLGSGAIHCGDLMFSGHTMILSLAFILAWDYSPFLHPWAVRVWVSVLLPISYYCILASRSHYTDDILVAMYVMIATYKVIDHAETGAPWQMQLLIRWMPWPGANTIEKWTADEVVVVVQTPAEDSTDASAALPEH
In plain terms, low IC50, meaning strictly below 6 µM, gives criterion met, and everything else gives criterion not met.

Take a look at these entries with their results.
{"columns": ["COMPOUND", "CLASS LABEL"],
 "data": [
  ["CN1CCC[C@H]1c1cn(C(c2ccccc2)c2ccc(Cl)cc2)nn1 (stereo partly shown) [14a]", "criterion not met"],
  ["CN1CCC[C@@H]1CCOC(c1ccccc1)c1ccc(Cl)cc1 (stereo partly shown)", "criterion met"],
  ["O=C(NCC1CCCN1)C(c1ccccc1)c1ccc(Cl)cc1 (stereo not shown)", "criterion not met"],
  ["CN1CCC[C@@H]1CCOC(c1ccccc1)c1ccc(Br)cc1 (stereo partly shown)", "criterion met"],
  ["Clc1ccc(C(OCCC2CCCN2)c2ccccc2)cc1 (stereo not shown)", "criterion not met"],
  ["CN1CCC[C@H]1CCOC(c1ccccc1)c1ccc(Cl)cc1 (stereo partly shown)", "criterion met"]
]}

# ---- query compound ----
Strictly below 6 µM: is that where IC50 of CN1CCCC1c1cn(C(c2ccccc2)c2ccc(Cl)cc2)nn1 (stereo not shown) [14b] sits?
criterion not met
